# condition info: in water, 303.2 K
parameter measured: solubility (mole fraction)

                                   compound  reported
0  CC(=O)N1CCN(c2ccc(OC[C@@H]3CO[C@@](Cn4ccnc4)(c4ccc(Cl)cc4Cl)O3)cc2)CC1 (racemic)     5e-07

====

# condition info: in water, 298.2 K
parameter measured: solubility (mole fraction)

In [3]: df
Out[3]:
                                   compound          parameter_measured  reported
0  CC(=O)N1CCN(c2ccc(OC[C@@H]3CO[C@@](Cn4ccnc4)(c4ccc(Cl)cc4Cl)O3)cc2)CC1 (racemic)  solubility (mole fraction)     4e-07

Cited source: BigSolDB 2.1
